EXPERIMENTAL TARGET: T1, LILRB2-Fc protein (human, UniProt Q8N423 22-460, limits assumed)
T1 construct: also called human LILRB2-Fc; not shown: Fc part
T1 sequence (Q8N423 22-460 limits assumed): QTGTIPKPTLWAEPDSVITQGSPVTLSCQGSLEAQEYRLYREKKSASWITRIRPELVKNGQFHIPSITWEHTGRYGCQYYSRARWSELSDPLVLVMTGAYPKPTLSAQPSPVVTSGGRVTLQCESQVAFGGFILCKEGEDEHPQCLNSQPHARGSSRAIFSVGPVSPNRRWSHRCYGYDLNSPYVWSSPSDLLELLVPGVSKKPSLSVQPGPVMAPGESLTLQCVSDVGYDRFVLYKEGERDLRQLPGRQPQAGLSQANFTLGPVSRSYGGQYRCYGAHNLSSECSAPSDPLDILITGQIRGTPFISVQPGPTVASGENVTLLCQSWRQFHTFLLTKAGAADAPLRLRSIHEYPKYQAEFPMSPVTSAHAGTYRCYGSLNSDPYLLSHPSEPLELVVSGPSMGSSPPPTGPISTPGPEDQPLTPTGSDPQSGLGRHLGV
PROTOCOL DESCRIPTION: blocking ELISA, LILRB2-Fc binding to coated monomer HLA-G; Exp I
PARAMETER: IC50 (µg/mL)
Note: unit µg/mL is implicit; provide only the numeric part.

Worked set:
{"BINDER": "B2H4-35 (antibody, V domains shown, Humanized variant, human IgG4 / kappa) VH: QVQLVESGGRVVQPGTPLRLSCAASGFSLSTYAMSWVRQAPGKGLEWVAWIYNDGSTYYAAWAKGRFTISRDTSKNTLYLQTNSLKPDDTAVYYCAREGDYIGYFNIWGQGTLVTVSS VL: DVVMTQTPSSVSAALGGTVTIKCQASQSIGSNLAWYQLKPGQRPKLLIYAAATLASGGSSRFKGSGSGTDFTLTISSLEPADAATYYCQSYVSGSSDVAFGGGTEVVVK", "UNIT OF MEASUREMENT": "µg/mL", "READOUT VALUE": 5.16}
{"BINDER": "B2H4-45 (antibody, V domains shown, Humanized variant, human IgG4 / kappa) VH: EVQLLESGGRLVQPGTSLRLSCAVSGFSLSTYAMSWVRQAPGKGLEWIGWIYNDGSTYYAAWAKGRFTISKDTSKTTLYLQMNSLTVEDTATYFCAREGDYIGYFNIWGQGTLVTVSS VL: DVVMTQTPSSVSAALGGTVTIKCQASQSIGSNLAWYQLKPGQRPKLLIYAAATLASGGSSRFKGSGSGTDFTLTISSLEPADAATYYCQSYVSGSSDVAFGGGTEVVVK", "UNIT OF MEASUREMENT": "µg/mL", "READOUT VALUE": 6.52}
{"BINDER": "B2H4-54 (antibody, V domains shown, Humanized variant, human IgG4 / kappa) VH: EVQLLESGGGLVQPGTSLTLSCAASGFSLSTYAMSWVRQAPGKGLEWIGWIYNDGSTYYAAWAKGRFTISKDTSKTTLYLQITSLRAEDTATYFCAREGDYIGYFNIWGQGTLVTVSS VL: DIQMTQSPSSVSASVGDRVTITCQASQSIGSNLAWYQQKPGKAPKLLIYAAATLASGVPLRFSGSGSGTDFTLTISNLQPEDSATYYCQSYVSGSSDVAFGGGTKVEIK", "UNIT OF MEASUREMENT": "µg/mL", "READOUT VALUE": 4.04}
{"BINDER": "B2H4-41 (antibody, V domains shown, Humanized variant, human IgG4 / kappa) VH: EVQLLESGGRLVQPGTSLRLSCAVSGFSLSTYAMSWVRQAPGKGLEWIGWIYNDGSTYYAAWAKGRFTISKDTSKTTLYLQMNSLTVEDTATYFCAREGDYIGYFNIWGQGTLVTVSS VL: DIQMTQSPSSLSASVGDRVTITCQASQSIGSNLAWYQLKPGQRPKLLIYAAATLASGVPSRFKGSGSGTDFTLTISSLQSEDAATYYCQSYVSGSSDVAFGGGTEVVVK", "UNIT OF MEASUREMENT": "µg/mL", "READOUT VALUE": 5.78}
{"BINDER": "B2H4-44 (antibody, V domains shown, Humanized variant, human IgG4 / kappa) VH: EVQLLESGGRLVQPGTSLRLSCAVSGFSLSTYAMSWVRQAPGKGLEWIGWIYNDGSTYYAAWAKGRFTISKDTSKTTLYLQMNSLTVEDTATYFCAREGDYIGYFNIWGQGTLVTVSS VL: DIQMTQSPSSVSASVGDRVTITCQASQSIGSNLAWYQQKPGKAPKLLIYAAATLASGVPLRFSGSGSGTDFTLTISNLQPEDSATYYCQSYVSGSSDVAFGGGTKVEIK", "UNIT OF MEASUREMENT": "µg/mL", "READOUT VALUE": 7.04}

What value of IC50 has been recorded for this entry: B2H4-51 (antibody, V domains shown, Humanized variant, human IgG4 / kappa) VH: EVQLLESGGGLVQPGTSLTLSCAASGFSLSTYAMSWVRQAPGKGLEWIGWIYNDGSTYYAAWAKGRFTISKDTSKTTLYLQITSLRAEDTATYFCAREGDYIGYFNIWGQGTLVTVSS VL: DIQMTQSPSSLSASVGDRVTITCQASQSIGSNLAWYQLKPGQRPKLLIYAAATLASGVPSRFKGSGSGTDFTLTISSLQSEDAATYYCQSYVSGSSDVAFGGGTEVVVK
8.11

IC50 for B2H4-11 (antibody, V domains shown, Humanized variant, human IgG4 / kappa) VH: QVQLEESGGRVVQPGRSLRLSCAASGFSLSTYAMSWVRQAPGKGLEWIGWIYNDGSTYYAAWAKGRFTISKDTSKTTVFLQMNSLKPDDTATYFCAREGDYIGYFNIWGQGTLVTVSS VL: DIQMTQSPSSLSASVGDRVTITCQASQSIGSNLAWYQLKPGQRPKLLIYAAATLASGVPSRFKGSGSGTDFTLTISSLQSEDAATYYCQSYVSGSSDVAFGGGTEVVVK ?
7.31

I would be grateful if you could share the reported IC50 for B2H4-13 (antibody, V domains shown, Humanized variant, human IgG4 / kappa) VH: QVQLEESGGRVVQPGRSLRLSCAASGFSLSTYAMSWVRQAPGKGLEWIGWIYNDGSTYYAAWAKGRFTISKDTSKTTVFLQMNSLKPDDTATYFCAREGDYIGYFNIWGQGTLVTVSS VL: DIEMTQSPSSVSASVGDRVTLTCQASQSIGSNLAWYQQKPGQAPKLLIYAAATLASGVPSRFKGSGSGTDFTLTISSLQPEDFATYYCQSYVSGSSDVAFGGGTEVVVK .
5.85
